Where do these numbers come from? They come from PubChem BioAssay AID1645848.

- PROTOCOL CONDITIONS: buffer; pH 7.4; 6.0 h; 150.0 µM
READOUT NAME: solubility kinetic

Below, 5 molecules whose answers are already recorded.
Consider the molecule `CCc1ccc(C(=O)Nc2cc(CN3CCN(C)CC3)cc(C(F)(F)F)c2)cc1C#Cc1cnc2ccnn2c1` . State its measured solubility kinetic.
< 1 µg/mL

Consider the molecule `CC(=O)c1c(C)[nH]c(C(=O)Nc2cccc([S+](=O)([O-])Nc3ccncc3)c2)c1C` . State its measured solubility kinetic.
> 61 µg/mL

Consider the molecule `CC(C)NC(=O)C1CCN(C(=O)c2cc3sccc3n2Cc2ccc(Cl)cc2)CC1` . State its measured solubility kinetic.
< 1 µg/mL

Consider the molecule `Cc1ccc(N2CCC(CNc3nc(-c4ccccc4C(C)C)ncc3C)CC2)cn1` . State its measured solubility kinetic.
19.8 µg/mL

Consider the molecule `Cc1cc(NC(=O)c2ccc(NC(=O)Cc3ccc(Cl)c(Cl)c3)cc2)no1` . State its measured solubility kinetic.
1.43 µg/mL

Others:
Consider the molecule `Fc1ccc(-c2csc3ncnc(Sc4nnnn4C4CC4)c23)cc1` . State its measured solubility kinetic.
2.91 µg/mL

Consider the molecule `O=C(c1nc(-c2ccc(Cl)nc2)c2ccccn12)N1CCCC1` . State its measured solubility kinetic.
2.73 µg/mL

Consider the molecule `C[C@@]12O[C@@H](C[C@]1(O)CO)n1c3ccccc3c3c4c(c5c6ccccc6n2c5c31)CNC4=O` . State its measured solubility kinetic.
15.2 µg/mL

Consider the molecule Cc1sc2c(c1C)C(c1ccc(Cl)cc1)=N[C@@H](CC(=O)Nc1ccc(OCCOCCOCCOCCNc3cccc4c3C(=O)N(C3CCC(=O)NC3=O)C4=O)cc1)c1nnc(C)n1-2 (stereo partly specified) . State its measured solubility kinetic.
< 1 µg/mL

Consider the molecule `COc1cc(NC(=O)Cn2c(=O)oc3cc(S(=O)(=O)N4CCCCCC4)ccc32)cc(OC)c1` . State its measured solubility kinetic.
< 1 µg/mL

Consider the molecule `Cc1nnc(-c2ccccc2C(C)C)nc1NCc1ccc(-c2cccnc2)cc1` . State its measured solubility kinetic.
< 1 µg/mL

Consider the molecule `O=S(=O)(Nc1ccc2ccccc2c1)c1ccc(NCc2cccc(Cl)c2O)cc1` . State its measured solubility kinetic.
< 1 µg/mL

Consider the molecule `CCN1C(=O)c2ccccc2[S@](=O)c2ccc(C(=O)N[C@H](C)c3ccc4ccccc4c3)cc21` . State its measured solubility kinetic.
< 1 µg/mL

Consider the molecule `CCCCCCOc1ccc(OC(=O)c2ccncc2)cc1` . State its measured solubility kinetic.
< 1 µg/mL

Consider the molecule `CCOc1ccc(CCNC(=O)c2cc3ccccc3o2)cc1OCC` . State its measured solubility kinetic.
8.88 µg/mL

Consider the molecule `O=C(Nc1nc(-c2ccccc2)cs1)c1ccccc1[N+](=O)[O-]` . State its measured solubility kinetic.
< 1 µg/mL

###

- PROTOCOL CONDITIONS: buffer; pH 7.4; 6.0 h; 150.0 µM
READOUT NAME: solubility kinetic

Below, 2 compounds whose answers are already recorded.
Consider the compound `Fc1cc(Nc2nc(-c3ccncc3)nc3ccccc23)ccc1N1CCCCC1` . State its measured solubility kinetic.
< 1 µg/mL

Consider the compound Cc1ccc(C)c(S(=O)(=O)NCC2CN(Cc3ccccc3)CCO2)c1 (stereo not drawn) . State its measured solubility kinetic.
> 55 µg/mL

Pending compound:
Consider the compound `CCOc1ccc(CCNC(=O)c2cc3ccccc3n2Cc2cccc(C)n2)cc1OCC` . State its measured solubility kinetic.
< 1 µg/mL
